test: NCI Yeast Anticancer Drug Screen. Data for the bub3 strain (AID 167); details: S. cerevisiae bub3 mutant strain, at 33.0 µM, active compounds read high
The panel holds about 79,000 compounds, 15% with a hit somewhere; the sample as a whole holds those more often.
# thresholds on growth inhibition define classes: category 1 (below 20%), category 2 (20% to below 40%), category 3 (40% or more)

>>> group_label("O=C(O)c1cccc2cccc(-c3c4ccc(=O)cc-4oc4cc(O)ccc34)c12")
"category 3"

Into which category would you place O=[N+]([O-])c1cccc2nc3ccccc3c(NCCc3cccc[n+]3[O-])c12 ? category 1

// bin(item) where item = CC(=O)Oc1ccc(C(=O)c2ccccc2)c(O)c1 category 1

Category lookup for the compound CC(=O)OCC1OC(O[C@H]2C=C[C@@H](C(=O)OCc3ccccc3)n3c(=O)n(-c4ccccc4)c(=O)n32)C(OC(C)=O)C(OC(C)=O)C1OC(C)=O (some centres not stated) category 2

Please let me know in which category the item CCN(CC)CC(O)c1cc(-c2ccc(Cl)cc2)nc2c(-c3ccccc3)cccc12 (configuration not stated) belongs. category 3

Which class is correct for the following compound? O=Nn1c2ccccc2c2cc([N+](=O)[O-])ccc21 category 3

Band for O=C(/C=C\c1ccc([N+](=O)[O-])o1)Nc1ccc(Cl)cc1 ? category 3

---

experiment: NCI Yeast Anticancer Drug Screen. Data for the mec2-1 strain (AID 157); conditions: S. cerevisiae mec2-1 strain, at 1.2 µM, active compounds read high
About 79,000 compounds went through this panel and 15% of them were active in at least one assay; those are over-represented in the sample as a whole.
experimental_readout: growth inhibition (%)
Your answer should be a plain number; it is taken to be in %.

Reference set (3 entries):
>>> recorded_number("BrCc1ccccc1C(c1ccccc1)c1ccccc1")
4
>>> recorded_number("Cc1ccc(S(=O)(=O)N/N=C/C2(c3ccccc3)c3ccccc3-c3ccccc32)cc1")
25
>>> recorded_number("COC(=O)c1oc([N+](=O)[O-])c(Cl)c1Cl")
94

Let us move to another entry and its growth inhibition.
Supply reported growth inhibition belonging to this compound: CCC(NC(C)c1ccccc1)C(=O)c1ccc(OCc2ccccc2)c(OCc2ccccc2)c1 (centres undefined) 39

---

experiment: NCI Yeast Anticancer Drug Screen. Data for the rad18 strain (AID 177); conditions: S. cerevisiae rad18 mutant growth inhibition; at 3.7 µM; active compounds read high
This is part of a sample that, as a whole, favours compounds with a hit. Of some 79,000 tested, about 15% had one in any assay.
experimental_readout: growth inhibition (%)
Write the answer as a number in %, unit excluded.

>>> recorded_number("N#Cc1sc2c(c1OC(=O)c1ccco1)c(=O)n(-c1ccccc1)c(=S)n2-c1ccccc1")
1
>>> recorded_number("Cc1cc(O)c2c(c1O)C(=O)C13C(=C2O)C(=O)C2C(O)C1C1C(O)C3C(=O)C3=C(O)c4c(O)cc(C)c(O)c4C(=O)C321 (stereo not given)")
-4

For the compound CN(C)CCN1C(=O)c2cccc3cc([N+](=O)[O-])cc(c23)C1=O , report growth inhibition. 16

Give the reported value of growth inhibition for this record: CC1CCC2(C(=O)O)CCC3(C)C(=CCC4C5(C)CC(O)C(O)C(C)(CO)C5C(O)CC43C)C2C1C (stereo not given) -47

Give me measured growth inhibition, please, for this compound: Nc1ccc(CCl)cc1Cc1c(O)ccc2ccccc12 1
